All figures here come from patent US20130129722A1.

# key: entry, value: T1/2
testedOn: Dimeric Human Ang-2FD conjugated to human IgG1 (human)
Sequence (chain, as listed by the source limits assumed): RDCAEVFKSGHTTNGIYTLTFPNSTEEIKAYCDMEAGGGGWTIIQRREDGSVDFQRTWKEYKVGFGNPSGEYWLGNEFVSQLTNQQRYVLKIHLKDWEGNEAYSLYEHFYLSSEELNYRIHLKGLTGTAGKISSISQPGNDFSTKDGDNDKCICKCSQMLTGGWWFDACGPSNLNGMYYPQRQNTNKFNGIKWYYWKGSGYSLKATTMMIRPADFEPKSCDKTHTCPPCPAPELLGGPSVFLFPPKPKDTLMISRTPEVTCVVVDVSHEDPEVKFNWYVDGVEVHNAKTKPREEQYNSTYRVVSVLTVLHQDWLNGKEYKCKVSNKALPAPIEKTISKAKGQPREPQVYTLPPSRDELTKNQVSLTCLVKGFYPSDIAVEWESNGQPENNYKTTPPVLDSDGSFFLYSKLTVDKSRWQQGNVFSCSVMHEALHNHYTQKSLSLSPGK
protocolSummary: SPR, human IgG1 antibody captured
// units = h; emit number, no label

- binder: "H1H724N (antibody, V domains shown) VH: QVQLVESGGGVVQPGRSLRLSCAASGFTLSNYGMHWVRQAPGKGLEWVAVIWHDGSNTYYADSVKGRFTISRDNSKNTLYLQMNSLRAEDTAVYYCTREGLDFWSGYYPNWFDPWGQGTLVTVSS VL: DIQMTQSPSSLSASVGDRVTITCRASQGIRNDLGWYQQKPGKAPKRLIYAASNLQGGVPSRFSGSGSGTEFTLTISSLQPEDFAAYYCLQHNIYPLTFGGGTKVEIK"
  unitDescriptor: "h"
  T1/2: 1.78
- binder: "H1H693P (antibody, human IgG1, V domains shown) VH: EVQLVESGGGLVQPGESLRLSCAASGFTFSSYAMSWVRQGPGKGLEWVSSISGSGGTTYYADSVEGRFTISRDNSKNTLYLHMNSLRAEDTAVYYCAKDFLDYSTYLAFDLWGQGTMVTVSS VL: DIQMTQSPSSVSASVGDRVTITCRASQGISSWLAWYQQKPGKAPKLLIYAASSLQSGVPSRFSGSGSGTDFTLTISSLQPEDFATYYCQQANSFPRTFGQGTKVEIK"
  unitDescriptor: "h"
  T1/2: 0.618

// next item, T1/2 requested
Form field: reported T1/2 of H1H730N (antibody, V domains shown) VH: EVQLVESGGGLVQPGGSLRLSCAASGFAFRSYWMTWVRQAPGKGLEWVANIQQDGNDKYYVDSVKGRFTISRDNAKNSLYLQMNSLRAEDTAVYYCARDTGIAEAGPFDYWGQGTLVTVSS VL: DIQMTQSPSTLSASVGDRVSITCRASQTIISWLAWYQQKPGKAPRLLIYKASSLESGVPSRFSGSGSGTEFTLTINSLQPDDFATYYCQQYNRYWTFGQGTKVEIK 1.03
